procedure_summary: inhibitors of CD8+ T cell-vesicle binding, pilot screen, LFA-1/ICAM-1 modulator project, MLPCN validation set, flow cytometry (AID 2523)
assay_conditions: 2C mouse CD8+ T cells, at 7 µM, stronger effect = lower value; measured here: CD8+/vesicle+ event percentage
Can you tell me double positive events for the items I'm about to list?
The answer is to be given in %; state only the numeric part.

Give double positive events for the following compound: `OC[C@H]1O[C@@H](n2cnc3c(NC4CCCC4)ncnc32)[C@H](O)[C@@H]1O` 52.6

Give double positive events for the following compound: `CC(C)NNC(=O)c1ccncc1` 55.2

Give double positive events for the following compound: `CC(=O)Oc1ccc(C(=O)O)cc1OC(C)=O` 59.1

Give double positive events for the following compound: `COc1ccc(Cc2nc(-c3ccc(Br)cc3)no2)cc1` 40

Give double positive events for the following compound: `C=CCn1c(SCC(=O)NC2CCCCC2)nc2ccccc2c1=O` 57.6

Give double positive events for the following compound: `Cc1ccc(C(=O)NC(=S)NCCCN2CCOCC2)cc1` 66.2

Give double positive events for the following compound: `CCOCc1cc(C)[nH]c(=O)c1C#N` 60.2
